All figures here come from patent US5928933A.

- assay-notes: Enzyme screens for resolution of racemic N-(methoxycarbonyl)-4,4-dimethoxy-D,L-proline methyl ester (Example 8, comparative)
- Format: biochemical
- setup-conditions: 0.100M racemate; pH 7.0; 6 h or 17 h; 5.0 to 30 mg/mL enzyme; 25° C.
- Protocol: An aqueous solution (1.0 mL) containing 0.100M racemic N-(methoxycarbonyl)-4,4-dimethoxy-D,L-proline methyl ester in 0.25M potassium phosphate (pH 7.0) was mixed with 5.0 to 30 mg/mL of commercial enzyme preparations (listed in the table below) at 25° C. […]
Listing of recorded % ee (enantiomeric excess of the D-isomer) by entry.
property-measured: % ee (enantiomeric excess of the D-isomer) (%)

molecule | obs-value
protease, type XXIV: commercial enzyme preparation, source bacterial (subtil. Carlsberg) (protein, UniProt P00780 106-379, looked up) Subtilisin Carlsberg: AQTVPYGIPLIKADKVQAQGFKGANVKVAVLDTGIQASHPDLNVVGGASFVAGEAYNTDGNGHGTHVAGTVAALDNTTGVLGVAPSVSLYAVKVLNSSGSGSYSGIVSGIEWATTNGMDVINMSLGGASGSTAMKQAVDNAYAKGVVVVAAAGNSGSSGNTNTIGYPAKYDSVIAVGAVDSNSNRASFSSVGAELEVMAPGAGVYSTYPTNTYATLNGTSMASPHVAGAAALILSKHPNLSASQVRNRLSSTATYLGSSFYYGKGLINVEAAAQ | 22
protease, trypsin bovine pancreas: commercial trypsin, source bovine pancreas (protein, UniProt P00760 24-246, looked up) Serine protease 1: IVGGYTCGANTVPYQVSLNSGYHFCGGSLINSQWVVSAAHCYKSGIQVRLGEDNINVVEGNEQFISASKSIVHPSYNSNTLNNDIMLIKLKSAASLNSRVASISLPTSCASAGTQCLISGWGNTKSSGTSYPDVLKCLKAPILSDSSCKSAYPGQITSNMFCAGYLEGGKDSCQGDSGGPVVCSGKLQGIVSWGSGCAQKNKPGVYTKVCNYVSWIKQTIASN | 0
protease (Chirazyme P1): commercial enzyme preparation, source Bacillus licheniformis (protein, UniProt P00780 106-379, looked up) Subtilisin Carlsberg: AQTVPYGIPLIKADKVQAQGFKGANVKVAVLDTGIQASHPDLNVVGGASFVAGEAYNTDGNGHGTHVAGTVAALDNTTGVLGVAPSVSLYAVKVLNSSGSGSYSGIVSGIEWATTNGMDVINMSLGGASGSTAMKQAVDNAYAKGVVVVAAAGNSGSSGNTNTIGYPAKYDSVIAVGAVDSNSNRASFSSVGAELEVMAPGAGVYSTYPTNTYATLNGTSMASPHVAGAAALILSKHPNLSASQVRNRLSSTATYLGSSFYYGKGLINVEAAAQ | 22
